Data provenance: paper PMC2248166

Biological target: HLA A*3001 (Homo sapiens, UniProt P04439, D140H/D185E/E176W/F33S/G80R/H175R/K168Q/R138E/R41S)
Test: biochemical
Assay type: binding
Where a SMILES comes first, the peptide text is derived from it.
Each record is given Y if its reported IC50 is strictly below 0.2 nM. Records at or above 0.2 nM are given N.

Consider the worked cases shown below.
CSCC[C@H](N)C(=O)N[C@@H](CCC(N)=O)C(=O)N[C@@H](CCCCN)C(=O)N[C@@H](CS)C(=O)N[C@@H](Cc1ccc(O)cc1)C(=O)N[C@@H](Cc1ccccc1)C(=O)N[C@@H](CO)C(=O)N[C@@H](Cc1ccc(O)cc1)C(=O)N[C@@H](CCCCN)C(=O)O [3102.0090] (H-MQKCYFSYK-OH) | N
CC[C@H](C)[C@H](NC(=O)[C@H](CCC(N)=O)NC(=O)[C@H](Cc1c[nH]cn1)NC(=O)[C@H](CO)NC(=O)[C@H](CCC(=O)O)NC(=O)[C@H](CCCCN)NC(=O)[C@@H](NC(=O)[C@@H](N)C(C)C)[C@@H](C)O)C(=O)N[C@@H](CCCCN)C(=O)O [3102.0096] (H-VTKESHQIK-OH) | N
NCCCC[C@H](NC(=O)[C@H](CS)NC(=O)[C@@H]1CCCN1C(=O)[C@H](CC(N)=O)NC(=O)[C@H](CCC(=O)O)NC(=O)[C@H](Cc1ccc(O)cc1)NC(=O)[C@H](CCCCN)NC(=O)[C@H](Cc1c[nH]c2ccccc12)NC(=O)[C@@H](N)CCCCN)C(=O)O [3102.0113] (H-KWKYENPCK-OH) | N
C[C@H](NC(=O)[C@H](CCCNC(=N)N)NC(=O)[C@H](CC(N)=O)NC(=O)[C@H](CCC(N)=O)NC(=O)[C@H](Cc1ccccc1)NC(=O)[C@H](CCCCN)NC(=O)[C@@H](NC(=O)[C@@H](N)CCCNC(=N)N)[C@@H](C)O)C(=O)N[C@@H](CCCCN)C(=O)O [3102.0266] (H-RTKFQNRAK-OH) | Y
CC[C@H](C)[C@H](NC(=O)[C@H](CC(N)=O)NC(=O)[C@H](CCCNC(=N)N)NC(=O)[C@@H](NC(=O)[C@@H](NC(=O)[C@H](CC(N)=O)NC(=O)[C@H](CCCNC(=N)N)NC(=O)[C@@H](NC(=O)[C@@H](N)CCCCN)[C@@H](C)O)C(C)C)[C@@H](C)CC)C(=O)O [3102.0486] (H-KTRNVIRNI-OH) | Y
CC[C@H](C)[C@H](NC(=O)[C@H](Cc1ccccc1)NC(=O)[C@H](CC(C)C)NC(=O)[C@H](CC(=O)O)NC(=O)[C@H](CCCNC(=N)N)NC(=O)[C@@H](NC(=O)[C@@H](N)CCCNC(=N)N)[C@@H](C)O)C(=O)N[C@@H](C)C(=O)N[C@@H](CC(C)C)C(=O)O [3102.0188] (H-RTRDLFIAL-OH) | Y

Next molecule, please.
## Input Problem: For the molecule CC[C@H](C)[C@H](NC(=O)[C@@H](NC(=O)[C@H](Cc1ccccc1)NC(=O)[C@H](CCSC)NC(=O)[C@@H](NC(=O)[C@@H](N)CCCCN)C(C)C)C(C)C)C(=O)N[C@@H](CCCNC(=N)N)C(=O)N[C@@H](Cc1ccccc1)C(=O)N[C@@H](CCCCN)C(=O)O [3102.0133] (H-KVMFVIRFK-OH) , is IC50 under 0.2 nM?
## Output N
